Reference for the values: paper PMC4151304

- target-or-test-system: PRMT4/CARM1 (Mus musculus)
- Sequence (Q9WVG6 whole entry): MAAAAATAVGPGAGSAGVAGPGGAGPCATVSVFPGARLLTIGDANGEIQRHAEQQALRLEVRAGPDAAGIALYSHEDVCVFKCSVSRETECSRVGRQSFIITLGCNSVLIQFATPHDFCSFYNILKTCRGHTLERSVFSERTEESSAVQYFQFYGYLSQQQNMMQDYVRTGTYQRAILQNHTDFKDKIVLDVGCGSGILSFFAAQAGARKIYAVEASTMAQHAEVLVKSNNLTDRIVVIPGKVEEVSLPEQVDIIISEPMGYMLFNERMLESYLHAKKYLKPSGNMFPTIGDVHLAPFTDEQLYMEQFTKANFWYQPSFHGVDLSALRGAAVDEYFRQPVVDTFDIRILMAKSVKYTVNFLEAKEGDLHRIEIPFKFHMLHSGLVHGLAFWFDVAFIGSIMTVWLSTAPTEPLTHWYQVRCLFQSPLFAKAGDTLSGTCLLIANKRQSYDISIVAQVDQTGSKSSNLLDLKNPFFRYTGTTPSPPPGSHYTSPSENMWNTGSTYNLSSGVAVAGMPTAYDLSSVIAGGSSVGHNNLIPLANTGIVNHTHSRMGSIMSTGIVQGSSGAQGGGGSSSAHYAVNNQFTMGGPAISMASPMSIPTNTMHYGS
- assay-summary: Radioactive methyltransferase assay, CARM1
- Format: biochemical
quantity-name: IC50

- structure-smiles-string: "CCn1/c(=C\\C=C\\C2=[N+](CC)c3cccc4cccc2c34)c2cccc3cccc1c32.[I-]"
  result: "~100 µM"

* * *

Parameter IC50, tested on PRMT1 (Rattus norvegicus), listed per item.
Sequence (Q63009 whole entry): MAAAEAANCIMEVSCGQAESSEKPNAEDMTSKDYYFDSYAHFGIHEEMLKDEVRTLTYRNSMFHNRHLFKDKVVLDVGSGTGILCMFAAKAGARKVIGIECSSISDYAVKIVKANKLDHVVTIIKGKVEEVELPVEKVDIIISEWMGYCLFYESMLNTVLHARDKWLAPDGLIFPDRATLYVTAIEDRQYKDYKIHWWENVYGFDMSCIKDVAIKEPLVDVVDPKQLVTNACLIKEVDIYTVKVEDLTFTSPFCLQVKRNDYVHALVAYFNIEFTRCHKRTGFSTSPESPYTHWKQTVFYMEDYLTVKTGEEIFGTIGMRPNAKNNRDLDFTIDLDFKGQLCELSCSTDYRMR
quantity-name: IC50 (µM)

- structure-smiles-string: "CCCCn1/c(=C\\C=C\\C2=[N+](CCCC)c3cccc4cccc2c34)c2cccc3cccc1c32"
  quantity-name: "IC50"
  result-number: 12
- structure-smiles-string: "CCCCN1/C(=C\\C=C\\C2=[N+](CCCC)c3ccc4ccccc4c3C2(C)C)C(C)(C)c2c1ccc1ccccc21"
  quantity-name: "IC50"
  result-number: 18
- structure-smiles-string: "CCN1/C(=C\\C=C\\C2=[N+](CC)c3ccccc3C2(C)C)C(C)(C)c2ccccc21"
  quantity-name: "IC50"
  result-number: 284
- structure-smiles-string: "CC1(C)C(/C=C/C=C2/N(CCCc3ccccc3)c3ccc4ccccc4c3C2(C)C)=[N+](CCCc2ccccc2)c2ccc3ccccc3c21"
  quantity-name: "IC50"
  result-number: 14.3
- structure-smiles-string: "CCN1/C(=C/C=C/C2=[N+](CC)c3ccc4ccccc4c3C2(C)C)C(C)(C)c2c1ccc1ccccc21"
  quantity-name: "IC50"
  result-number: 20.3
- structure-smiles-string: "C(/C=C/C1=[N+](CCCc2ccccc2)c2cccc3cccc1c23)=c1\\c2cccc3cccc(c32)n1CCCc1ccccc1"
  quantity-name: "IC50"
  result-number: 15.5
- structure-smiles-string: "CC1(C)C(/C=C/C=C2/N(CCC[N+](C)(C)C)c3ccc(Br)cc3C2(C)C)=[N+](CCC[N+](C)(C)C)c2ccc(Br)cc21"
  quantity-name: "IC50"
  result-number: 292
